test system: M14 melanoma; assay: NCI-60 one-dose screen, 48 h (100 = growth as untreated, 0 = no growth, -100 = all killed); conditions: 10 µM unless noted
The panel holds about 83,000 compounds, 20% with a hit somewhere; the sample as a whole holds those more often.
READOUT KIND: growth (%)
Answer with a number only, understood to be in %.

[ask] Look up growth: "COC(=O)c1ccccc1Cl"
[reply] 102

[ask] Look up growth: "OCc1cccc(F)c1"
[reply] 94.9

[ask] Look up growth: "CCOCCC(=O)O"
[reply] 102

[ask] Look up growth: CC(C)(C)C1CCC(=NO)CC1 (stereo not given)
[reply] 100

[ask] Look up growth: "CCNCc1ccccc1"
[reply] 109

[ask] Look up growth: CCC(C)NC(=O)c1ccccc1C (stereo not given)
[reply] 95.3

[ask] Look up growth: "COc1ccc2nccc(Cl)c2c1"
[reply] 107

[ask] Look up growth: "CCCCCc1cc[n+](CC(=O)c2ccccc2)cc1"
[reply] 100

[ask] Look up growth: "O=c1[nH]nnc2cc(Cl)ccc12"
[reply] 105

[ask] Look up growth: "CC(=O)Nc1cscc1NC(C)=O"
[reply] 104

[ask] Look up growth: Cc1ccc(NC(=S)N/C=C(\c2ccccc2)S(=O)Cc2ccccc2)c(C)c1 (stereo not given)
[reply] 97.3

[ask] Look up growth: C#CCOC(=O)C(N)CS (stereo not given)
[reply] 97.1

[ask] Look up growth: "COC(=O)c1nc(N)nc(C(=O)OC)c1C(=O)c1cccc2ccccc12"
[reply] 108

[ask] Look up growth: "N=c1sc2ccccc2n1CC(=O)O"
[reply] 95.7

[ask] Look up growth: "N#Cc1c[nH]n2ccnc12"
[reply] 94.9

[ask] Look up growth: "O=C(O)C#Cc1ccc(Cl)cc1"
[reply] 98.2

[ask] Look up growth: O=C1c2ccccc2C(c2ccccc2)C1c1ccccc1 (stereo not given)
[reply] 97.7

[ask] Look up growth: "COC(=O)c1cc(C(=O)OC)cc([N+](=O)[O-])c1"
[reply] 106

[ask] Look up growth: "NCCSSC/C=C\CSSCCN"
[reply] 96.9

[ask] Look up growth: "Nc1c(Cl)cc2c(c1Br)C(=O)c1ccccc1C2=O"
[reply] 108

----------
system: OVCAR-3 ovarian; experiment: NCI-60 one-dose screen, 48 h (100 = growth as untreated, 0 = no growth, -100 = all killed); conditions: 10 µM unless noted
The panel holds about 83,000 compounds, 20% with a hit somewhere; the sample as a whole holds those more often.
For each entry below, report its growth value.
Answer with a number only, understood to be in %.

[ask] Look up growth: CCN(CC)C(CC(=O)c1ccccc1)C(=O)c1ccccc1 (stereo not drawn)
[reply] 92.5

[ask] Look up growth: "CC(C)(C)OC(=O)NCCc1ccc(N)cc1"
[reply] 106

[ask] Look up growth: "O=[N+]([O-])c1ccc(N/N=C/C2CCCCCC2)c([N+](=O)[O-])c1"
[reply] 99.8

----------
system: NCI-H322M lung; assay: NCI-60 one-dose screen, 48 h (100 = growth as untreated, 0 = no growth, -100 = all killed); settings: 10 µM unless noted
Compounds without any hit were thinned out: in the full panel of roughly 83,000, 20% have a hit. Calls of active or inactive are those of the source. The calls were made as follows: active = growth percent below 10; inactive = the rest.
READOUT KIND: growth

[ask] Look up growth: "CCOc1ccc(/C=C\C(=O)O)cc1"
[reply] 107% (inactive)

[ask] Look up growth: "COc1cc2c(cc1O)C(=O)CCCC2"
[reply] 102% (inactive)

[ask] Look up growth: "COC(=O)c1nc(=S)[nH]c(C(=O)OC)c1C(=O)c1ccc(OC)cc1"
[reply] 104% (inactive)

[ask] Look up growth: "Nc1nc(-c2ccccn2)cc(-c2cc(-c3ccccn3)nc(N)n2)n1"
[reply] 94.3% (inactive)

[ask] Look up growth: "CC(C)(C)OC(=O)CC1(O)CCCCC1"
[reply] 111% (inactive)

[ask] Look up growth: "NCCSSC/C=C\CSSCCN"
[reply] 100% (inactive)

[ask] Look up growth: "CCCC(=O)OCC(COC(=O)CCC)OC(=O)CCC"
[reply] 93.9% (inactive)

[ask] Look up growth: "COC(=O)c1nc(N)nc(C(=O)OC)c1C(=O)c1cccc2ccccc12"
[reply] 109% (inactive)

[ask] Look up growth: "O=C1C=CC(=O)N1Cc1ccco1"
[reply] 85.1% (inactive)

[ask] Look up growth: "O=[N+]([O-])c1ccc(N2CCN=N2)cc1"
[reply] 88% (inactive)

[ask] Look up growth: "CC(=O)C[n+]1ccccc1Sc1ccc(Cl)cc1"
[reply] 99.6% (inactive)

[ask] Look up growth: CCC(C)(O)CCC(C)(O)CC (stereo unspecified)
[reply] 102% (inactive)

[ask] Look up growth: O=C1c2ccccc2C(c2ccccc2)C1c1ccccc1 (stereo unspecified)
[reply] 92.5% (inactive)

[ask] Look up growth: "COC(=O)CCOc1ccccc1"
[reply] 103% (inactive)

[ask] Look up growth: OC1CCCN(Cc2ccccc2)C1 (stereo unspecified)
[reply] 113% (inactive)

[ask] Look up growth: CCCCCCC(C)CC1=C(O)c2ccccc2C(=O)C1=O (stereo unspecified)
[reply] 51.7% (inactive)

[ask] Look up growth: "O=C(O)C#Cc1ccc(Cl)cc1"
[reply] 111% (inactive)

[ask] Look up growth: "COc1ccc2oc3c(ccc[n+]3C)c(=O)c2c1"
[reply] 105% (inactive)

[ask] Look up growth: C/C(=C\c1ccccc1)C(O)C(=O)c1nc2ccc([N+](=O)[O-])cc2[nH]c1=O (stereo unspecified)
[reply] 90.3% (inactive)

[ask] Look up growth: COc1cc2oc3cc(=O)cc4oc(-c5ccccc5)cc(c2c2c1CCC(c1ccccc1)O2)c43 (stereo unspecified)
[reply] 101% (inactive)

[ask] Look up growth: "NNC(=O)Nc1ccccc1"
[reply] 96.1% (inactive)

[ask] Look up growth: Clc1ccc2c(c1)N(C1CCCN(Cc3ccccc3)C1)c1ccccc1S2 (stereo unspecified)
[reply] 31.1% (inactive)

[ask] Look up growth: "COc1ccc([N+](=O)[O-])cc1OC"
[reply] 105% (inactive)

[ask] Look up growth: "Cc1cc(Cl)nc(Nc2ccccc2)n1"
[reply] 92% (inactive)

[ask] Look up growth: "N#Cc1c[nH]n2ccnc12"
[reply] 98.7% (inactive)

[ask] Look up growth: "Cc1cccc(Cl)c1N"
[reply] 127% (inactive)

[ask] Look up growth: "CCCCCCCCCCCCCCCCC(=O)O"
[reply] 98% (inactive)

[ask] Look up growth: "CC(=O)c1cccc(OC(=O)c2ccccc2)c1"
[reply] 136% (inactive)

[ask] Look up growth: CCC(C)NC(=O)c1ccccc1C (stereo unspecified)
[reply] 97.7% (inactive)

[ask] Look up growth: "S=c1nc[nH]c2nc[nH]c12"
[reply] 33% [50 µM] (inactive)

[ask] Look up growth: "CCN(CC)C(=S)SCCO"
[reply] 97.1% (inactive)

[ask] Look up growth: "COc1ccc(/C=N/NC(N)=S)cc1"
[reply] 103% (inactive)

[ask] Look up growth: "OCCCc1ccccc1"
[reply] 76.2% (inactive)

[ask] Look up growth: "Cc1cnc(N)s1"
[reply] 99.6% (inactive)

[ask] Look up growth: "CN(C)C(=S)N(C)C"
[reply] 140% (inactive)

[ask] Look up growth: "Clc1ccc2sc(-c3ccccc3)nc2c1"
[reply] 102% (inactive)

[ask] Look up growth: "COC(=O)c1nc(N)nc(C(=O)OC)c1C(=O)c1ccc(F)cc1"
[reply] 108% (inactive)

[ask] Look up growth: "Oc1ccc(O)c(-c2ccccc2)c1"
[reply] 42.9% (inactive)

[ask] Look up growth: "CCn1c2ccc(N(C)C)cc2c2cc(N(C)C)ccc21"
[reply] 95.2% (inactive)

[ask] Look up growth: "CCN(C)c1ccccc1"
[reply] 111% (inactive)

[ask] Look up growth: "S=c1nn[nH]n1C1CCCCC1"
[reply] 102% (inactive)

[ask] Look up growth: "Cc1cc(=NO)cc(C)n1O"
[reply] 94.3% (inactive)

[ask] Look up growth: "CCOC(C)=N"
[reply] 146% (inactive)

[ask] Look up growth: Nc1ccccc1SC1CC(=O)N(c2ccc(I)cc2)C1=O (stereo unspecified)
[reply] 108% (inactive)

[ask] Look up growth: "CCCC(=O)Oc1ccc(CC)cc1"
[reply] 106% (inactive)

[ask] Look up growth: CCN(CC)CCO/N=C1\CC(c2ccc(OC)c(OC)c2)Oc2ccccc21 (stereo unspecified)
[reply] 94.8% (inactive)

[ask] Look up growth: O=C(N=C1C(=O)C2(CCCCC2)C2(N=C(c3ccccc3)OC2=O)C12CCCCC2)c1ccccc1 (stereo unspecified)
[reply] 96% (inactive)

[ask] Look up growth: CN(C)CC(CN(C)C)C(O)c1ccccc1 (stereo unspecified)
[reply] 103% (inactive)

[ask] Look up growth: "OCCS"
[reply] 101% (inactive)

[ask] Look up growth: CC(NC(=O)CCl)c1ccccc1 (stereo unspecified)
[reply] 106% (inactive)

[ask] Look up growth: "CC1=CC(=O)c2cccc(NC3=NCCO3)c21"
[reply] 99.4% (inactive)

[ask] Look up growth: "Nc1c(Cl)cc2c(c1Br)C(=O)c1ccccc1C2=O"
[reply] 96% (inactive)

[ask] Look up growth: "CCNC1=CC(=O)c2ncccc2C1=O"
[reply] 13.9% (inactive)

[ask] Look up growth: "CCCCNC(=O)c1ccccc1C"
[reply] 89.4% (inactive)

[ask] Look up growth: "COc1ccc(S(=O)(=O)c2ccc(F)cc2)cc1"
[reply] 117% (inactive)

[ask] Look up growth: "O=C(c1ccncc1)c1c(Cc2ccccc2)ccc2ccccc12"
[reply] 74.2% (inactive)

Hello, the source for this data is PubChem BioAssay (NCI), in case you need it.
